Readings of MIC PM 6391 for the listed compounds
Test system: Pasteurella multocida
Experiment: MIC by broth-microdilution method (CLSI VET01-A4), Pasteurella multocida strains
Type: cell-based
Settings: Pasteurella multocida PM 6391 (ATCC 43137), reference strain
Method: For example, representative compounds were tested against Mannheimia haemolytica and Pasteurella multocida, using the conventional broth-dilution assay. The Minimum inhibitory concentrations (MIC) of compounds according to the invention for a number of veterinary bacterial pathogens were determined by the broth-microdilution method according to CLSI document VET01-A4. Microdilution trays containing a doubling dilution series of the test compound were used for the tests. […]
PROPERTY: MIC PM 6391

{"SMILES_NOTATION": "C[C@@H](O)[C@H](Nc1ncnc2cc(C#Cc3ccc(CNC4CC4)cc3)ccc12)C(=O)NO", "PROPERTY": "MIC PM 6391", "ENDPOINT_RESULT": "0.2 µM"}
{"SMILES_NOTATION": "C=CCNCc1ccc(C#Cc2ccc3c(N[C@H](C(=O)NO)[C@@H](C)O)nsc3c2)cc1", "PROPERTY": "MIC PM 6391", "ENDPOINT_RESULT": "0.2 µM"}
{"SMILES_NOTATION": "C[C@@H](O)[C@H](Nc1nsc2cc(C#Cc3ccc(CNCc4ccccc4)cc3)ccc12)C(=O)NO", "PROPERTY": "MIC PM 6391", "ENDPOINT_RESULT": "100 µM"}
{"SMILES_NOTATION": "C[C@@H](O)[C@H](Nc1nsc2cc(C#Cc3ccc(CNCC(F)(F)F)cc3)ccc12)C(=O)NO", "PROPERTY": "MIC PM 6391", "ENDPOINT_RESULT": ">100 µM"}

----------
tested on: Pasteurella multocida; assay: MIC by broth-microdilution method (CLSI VET01-A4), Pasteurella multocida strains; format: cell-based; conditions: Pasteurella multocida PM 12080 (IV102277-0093), BRD field isolate

{"MOLECULE": "C[C@@H](O)[C@H](Nc1nsc2cc(C#Cc3ccc(CNCc4ccccc4)cc3)ccc12)C(=O)NO [Compound 14]", "RESULT_UNITS": "µM", "VALUE_COMPARATOR": "=", "MIC PM 12080": 0.2}
{"MOLECULE": "COCCNCc1ccc(C#Cc2ccc3c(NC(C(=O)NO)C(C)(C)N)ncnc3c2)cc1 (racemic) [Compound 18]", "RESULT_UNITS": "µM", "VALUE_COMPARATOR": "=", "MIC PM 12080": 12.5}
{"MOLECULE": "C[C@@H](O)[C@H](Nc1ncnc2cc(C#Cc3ccc(CNC4CC4)cc3)ccc12)C(=O)NO [Compound 2]", "RESULT_UNITS": "µM", "VALUE_COMPARATOR": "≤", "MIC PM 12080": 0.1}
{"MOLECULE": "C[C@@H](O)[C@H](Nc1ncnc2cc(C#Cc3ccc(CNCc4ccccc4)cc3)ccc12)C(=O)NO [Compound 5]", "RESULT_UNITS": "µM", "VALUE_COMPARATOR": "=", "MIC PM 12080": 0.8}
{"MOLECULE": "C[C@@H](O)[C@H](Nc1nsc2cc(C#Cc3ccc(CNC4CC4)cc3)ccc12)C(=O)NO [Compound 10]", "RESULT_UNITS": "µM", "VALUE_COMPARATOR": "≤", "MIC PM 12080": 0.1}
{"MOLECULE": "COCCNCc1ccc(C#Cc2ccc3c(N[C@H](C(=O)NO)[C@@H](C)O)nsc3c2)cc1 [Compound 12]", "RESULT_UNITS": "µM", "VALUE_COMPARATOR": "=", "MIC PM 12080": 0.8}
{"MOLECULE": "C[C@@H](O)[C@H](Nc1ncnc2cc(C#Cc3ccc(CN4CCOCC4)cc3)ccc12)C(=O)NO [Compound 1]", "RESULT_UNITS": "µM", "VALUE_COMPARATOR": "≤", "MIC PM 12080": 0.1}
{"MOLECULE": "COCCNCc1ccc(C#Cc2ccc3c(N[C@H](C(=O)NO)[C@@H](C)O)ncnc3c2)cc1 [Compound 3]", "RESULT_UNITS": "µM", "VALUE_COMPARATOR": "=", "MIC PM 12080": 3.1}

----------
system: Pasteurella multocida; test: MIC by broth-microdilution method (CLSI VET01-A4), Pasteurella multocida strains; type: cell-based; conditions: Pasteurella multocida PM 6391 (ATCC 43137), reference strain
Reported values of MIC PM 6391 for individual entries
PROPERTY: MIC PM 6391

{"SMILES_NOTATION": "COCCNCc1ccc(C#Cc2ccc3c(N[C@H](C(=O)NO)[C@@H](C)O)nsc3c2)cc1", "PROPERTY": "MIC PM 6391", "ENDPOINT_RESULT": ">100 µM"}
{"SMILES_NOTATION": "C[C@@H](O)[C@H](Nc1nsc2cc(C#Cc3ccc(CNC4CC4)cc3)ccc12)C(=O)NO", "PROPERTY": "MIC PM 6391", "ENDPOINT_RESULT": ">100 µM"}
{"SMILES_NOTATION": "C[C@@H](O)[C@H](Nc1ncnc2cc(C#Cc3ccc(CNCC(F)(F)F)cc3)ccc12)C(=O)NO", "PROPERTY": "MIC PM 6391", "ENDPOINT_RESULT": "≤0.1 µM"}

Data origin, for the record: patent US12227485B2
